SUBJECT OF TEST: human orexin 1 receptor (Homo sapiens (Human), UniProt O43613)
Sequence (O43613 whole entry): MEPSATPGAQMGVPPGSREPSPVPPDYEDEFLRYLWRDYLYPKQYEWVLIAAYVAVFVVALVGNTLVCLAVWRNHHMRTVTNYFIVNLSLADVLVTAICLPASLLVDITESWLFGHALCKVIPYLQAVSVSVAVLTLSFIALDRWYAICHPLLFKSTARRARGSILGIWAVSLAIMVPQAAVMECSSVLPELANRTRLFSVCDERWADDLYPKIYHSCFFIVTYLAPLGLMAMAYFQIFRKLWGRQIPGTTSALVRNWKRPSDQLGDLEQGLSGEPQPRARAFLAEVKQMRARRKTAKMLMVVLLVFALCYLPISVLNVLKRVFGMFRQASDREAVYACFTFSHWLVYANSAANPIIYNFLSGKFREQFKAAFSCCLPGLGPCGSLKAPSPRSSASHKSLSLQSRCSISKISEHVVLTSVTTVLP
ASSAY METHOD TEXT: Human orexin 1 receptor radioligand binding ([3H]-SB674042 competition)
COND: CHO cells stably expressing human orexin 1 receptor; [3H]-SB674042 4 nM final; read-out: OR-1 Ki
QUANTITY KIND: pKi
Lab note — pKi values are minus log10 of concentrations in M.

Here's what some known entries look like.
MOLECULE | VALUE REPORTED
CN(C)c1nc(N2C[C@@H]3CCN(C(=O)c4ccccc4-n4nccn4)C[C@@H]32)cc(C(F)(F)F)n1 | 7.96
CCOc1ccc2ccccc2c1C(=O)N1CC2CN(c3nc(OC)cc(OC)n3)C2C1 (stereo not shown) | 6.09
O=C(c1cccc(F)c1-c1ncccn1)N1CC[C@H]2CN(c3cc(C(F)(F)F)ccn3)[C@H]2C1 | 5.73

Tell me the measured pKi of COc1ccccc1C(=O)N1CC2CN(c3nccc(-c4ccccc4)n3)C2C1 (stereo not shown) , please.
5.43

O=C(c1cc(F)ccc1-n1nccn1)N1CC[C@H]2CN(c3nccc(C(F)(F)F)n3)[C@H]2C1 ?
5.00

// same read-out, input: COc1ccc(C(=O)N2CC[C@H]3CN(c4cc(C(F)(F)F)ccn4)[C@H]3C2)c(-n2nccn2)c1
5.05

Same again, this time with Cc1cc(C)nc(N2C[C@@H]3CCN(C(=O)c4cc(F)ccc4-c4cncnc4)C[C@@H]32)n1
5.00
